- ASSAY INFO: Mouse PO PK (plasma and brain concentration)
- Type: in vivo
- RUN CONDITIONS: mouse, plasma, po, 10 mg/kg, Mouse PO 10 mg/kg, 3 h; read-out: Plasma Concentration
PARAMETER MEASURED: concentration at 3 h (nM)

COMPOUND	DATA VALUE
Cc1cc(Oc2cncc(F)c2)cc(C(=O)Nc2ccc(F)cn2)n1 [drawing 270]	3.2

----------
In this section, each of the molecules is paired with its reported concentration at 3 h.
- ASSAY INFO: Mouse PO PK (plasma and brain concentration)
- Assay type: in vivo
- RUN CONDITIONS: mouse, brain, po, 10 mg/kg, Mouse PO 10 mg/kg, 3 h; read-out: Free Brain Concentration

MOLECULE	concentration at 3 h / nM
Cc1cc(Oc2cncnc2)cc(C(=O)Nc2ccc(F)cn2)n1 [drawing 269]	0.7
Cc1cc(Oc2cncc(F)c2)cc(C(=O)Nc2ccc(F)cn2)n1 [drawing 270]	0.3

----------
- ASSAY INFO: Mouse PO PK (plasma and brain concentration)
- Assay type: in vivo
- RUN CONDITIONS: mouse, brain, po, 10 mg/kg, Mouse PO 10 mg/kg, 3 h; read-out: Brain Concentration

MOLECULE	concentration at 3 h, nM
Cc1cc(Oc2cncc(F)c2)cc(C(=O)Nc2ccc(F)cn2)n1 [drawing 270]	19.6
Cc1cc(Oc2cncnc2)cc(C(=O)Nc2ccc(F)cn2)n1 [drawing 269]	9.2

----------
- TESTED TARGET: rat mGluR5 (Rattus norvegicus)
- Sequence (P31424 21-1171 isoform P31424-2 limits assumed): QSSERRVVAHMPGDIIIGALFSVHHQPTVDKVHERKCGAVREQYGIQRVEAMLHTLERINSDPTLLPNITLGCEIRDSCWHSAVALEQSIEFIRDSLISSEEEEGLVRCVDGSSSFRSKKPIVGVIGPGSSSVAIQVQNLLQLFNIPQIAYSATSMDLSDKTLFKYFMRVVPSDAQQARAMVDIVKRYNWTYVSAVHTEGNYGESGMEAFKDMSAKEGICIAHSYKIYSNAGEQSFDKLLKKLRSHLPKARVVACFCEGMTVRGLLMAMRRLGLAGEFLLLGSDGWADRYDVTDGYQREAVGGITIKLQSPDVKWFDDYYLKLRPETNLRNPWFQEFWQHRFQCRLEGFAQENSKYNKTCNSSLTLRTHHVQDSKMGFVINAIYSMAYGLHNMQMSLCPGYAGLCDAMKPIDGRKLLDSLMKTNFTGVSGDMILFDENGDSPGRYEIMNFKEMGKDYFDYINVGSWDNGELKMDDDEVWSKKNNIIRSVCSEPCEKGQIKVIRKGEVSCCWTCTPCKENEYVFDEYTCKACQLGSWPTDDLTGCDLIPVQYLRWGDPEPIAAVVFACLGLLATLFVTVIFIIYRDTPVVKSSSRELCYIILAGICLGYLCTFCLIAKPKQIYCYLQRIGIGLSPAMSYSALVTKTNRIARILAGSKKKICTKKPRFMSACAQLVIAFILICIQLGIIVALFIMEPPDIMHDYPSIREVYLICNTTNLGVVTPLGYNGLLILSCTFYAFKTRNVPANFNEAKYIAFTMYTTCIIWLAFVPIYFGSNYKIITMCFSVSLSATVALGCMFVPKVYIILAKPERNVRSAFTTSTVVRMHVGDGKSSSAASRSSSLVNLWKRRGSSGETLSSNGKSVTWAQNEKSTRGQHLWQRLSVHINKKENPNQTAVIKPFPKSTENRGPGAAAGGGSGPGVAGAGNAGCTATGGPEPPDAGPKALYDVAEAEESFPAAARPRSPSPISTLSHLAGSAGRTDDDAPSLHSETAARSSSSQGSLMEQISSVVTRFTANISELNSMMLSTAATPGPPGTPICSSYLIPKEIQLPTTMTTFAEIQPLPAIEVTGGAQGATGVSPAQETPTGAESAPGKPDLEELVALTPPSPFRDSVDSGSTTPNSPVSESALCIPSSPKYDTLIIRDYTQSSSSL
- ASSAY INFO: mGluR5 calcium mobilization assay (HEK 293A cells, FDSS)
- RUN CONDITIONS: HEK cells transfected with rat mGluR5; antagonism of glutamate EC80 response; Table 1
// NB: equality with 20 nM counts as NO; only IC50 strictly below is YES

QUERY SMILES	GROUP
Cc1ccc(Oc2cc(C)nc(C(=O)Nc3ccc(C(F)(F)F)cn3)c2)cn1	NO
Cc1cc(Oc2cncc(F)c2)cc(C(=O)Nc2cccc(Cl)n2)n1	YES
CCc1cc(Oc2cncc(F)c2)cc(C(=O)Nc2ccc(F)cn2)n1	YES
CCc1cc(Oc2cncnc2)cc(C(=O)Nc2cc(C)c(F)cn2)n1	NO
CCc1cc(Oc2cncc(F)c2)cc(C(=O)Nc2ccc(Cl)cn2)n1	NO
Cc1cccc(NC(=O)c2cc(Oc3cccnc3)cc(C)n2)n1	YES
Cc1cc(Oc2cncc(Cl)c2)cc(C(=O)Nc2ccc(Cl)cn2)n1	YES
Cc1cc(Oc2cccnc2)cc(C(=O)Nc2ccc(F)cn2)n1	YES
Cc1cc(Oc2cncc(C#N)c2)cc(C(=O)Nc2cc(F)ccn2)n1	YES
Cc1cc(Oc2cncc(Cl)c2)cc(C(=O)Nc2cccc(F)n2)n1	YES
Cc1cc(Oc2ccc(C(F)(F)F)nc2)cc(C(=O)Nc2cc(F)ccn2)n1	NO
Cc1cc(Oc2ccc(C(F)(F)F)nc2)cc(C(=O)Nc2cccc(F)n2)n1	NO
Cc1ccc(NC(=O)c2cc(Oc3cncc(F)c3)cc(C)n2)nc1	YES
Cc1cc(Oc2ccc(C(F)(F)F)nc2)cc(C(=O)Nc2ccc(Cl)cn2)n1	NO
Cc1cc(Oc2cnc(C)nc2)cc(C(=O)Nc2ccc(Cl)cn2)n1	NO
CCc1cc(Oc2cncc(F)c2)cc(C(=O)Nc2ccc(C#N)cn2)n1	NO
CCc1cccc(NC(=O)c2cc(Oc3ccc(C)nc3)cc(C)n2)n1	NO
CCc1cccc(NC(=O)c2cc(Oc3cncc(Cl)c3)cc(C)n2)n1	YES
Cc1cc(Oc2cccnc2)cc(C(=O)Nc2ccc(C#N)cn2)n1	YES
Cc1ccc(Oc2cc(C)nc(C(=O)Nc3cccc(Cl)n3)c2)cn1	NO
Cc1ccc(NC(=O)c2cc(Oc3cncnc3)cc(C(F)F)n2)nc1	NO
Cc1cc(Oc2cncc(Cl)c2)cc(C(=O)Nc2cccc(Cl)n2)n1	YES
Cc1ccc(NC(=O)c2cc(Oc3cncc(Cl)c3)cc(C)n2)nc1	YES
Cc1ccc(Oc2cc(C)nc(C(=O)Nc3ccc(C#N)cn3)c2)cn1	NO
Cc1cc(Oc2cccnc2)cc(C(=O)Nc2ccc(C(F)(F)F)cn2)n1	NO
Cc1cc(Oc2cncc(Cl)c2)cc(C(=O)Nc2ccc(C(F)(F)F)cn2)n1	NO
Cc1cc(Oc2cncc(Cl)c2)cc(C(=O)Nc2ccccn2)n1	YES
CCc1cc(Oc2cncc(F)c2)cc(C(=O)Nc2cc(C)c(F)cn2)n1	NO
CCc1cc(Oc2cncc(F)c2)cc(C(=O)Nc2ccc(C(F)(F)F)cn2)n1	NO
Cc1cc(Oc2cnc(C)nc2)cc(C(=O)Nc2cccc(F)n2)n1	NO
CCc1cc(Oc2cncnc2)cc(C(=O)Nc2ccc(F)cn2)n1	YES
Cc1cc(Oc2cccnc2)cc(C(=O)Nc2cc(C#N)ccn2)n1	NO
CCc1cccc(NC(=O)c2cc(Oc3cncc(F)c3)cc(CC)n2)n1	NO
Cc1cc(Oc2cccnc2)cc(C(=O)Nc2cc(F)ccn2)n1	NO
CCc1cc(Oc2cncc(F)c2)cc(C(=O)Nc2cccc(C)n2)n1	YES
Cc1ccc(Oc2cc(C)nc(C(=O)Nc3ccc(F)c(C)n3)c2)cn1	NO
CCc1cc(Oc2cncnc2)cc(C(=O)Nc2cccc(Cl)n2)n1	YES
CCc1cc(Oc2cncnc2)cc(C(=O)Nc2ccc(C(F)(F)F)cn2)n1	NO
Cc1ccc(Oc2cc(C)nc(C(=O)Nc3cc(C#N)ccn3)c2)cn1	NO
CCc1cc(Oc2cncc(F)c2)cc(C(=O)Nc2cc(F)ccn2)n1	NO
CCc1cc(Oc2cncc(F)c2)cc(C(=O)Nc2ccc(C)cn2)n1	NO
CCc1cc(Oc2cncnc2)cc(C(=O)Nc2cccc(C)n2)n1	YES
CCc1cc(Oc2cncc(F)c2)cc(C(=O)Nc2cccc(Cl)n2)n1	NO
